- System: CP238
- TEST DESCRIPTION: qHTS profiling for inhibitors of Plasmodium falciparum proliferation (AID 504749); also: nearly all actives have a fitted effect of over 60% in size
- CONDITION INFO: P. falciparum in erythrocytes, SYBR Green DNA, 72 h; series mostly up to 28.7 µM
Records with an inconclusive call do not appear. Calls of active or inactive are those of the source. Calls follow the shape of the dose curve; as a rule, active = well fitted inhibition curve with a large enough effect; inconclusive = small, poorly fitted or top-dose-only effect; inactive = flat fitted curve, though single readings scatter.
Respond using exactly one of the listed classes: TRUE (active), FALSE (inactive)

Consider the following illustrative entries.
Nc1ncnc2c1ncn2CCOCP(=O)(O)O = FALSE
F[Si-2](F)(F)(F)(F)F = FALSE
Cc1c(Cl)cccc1Nc1ncccc1C(=O)O = FALSE

Query block: What was the test verdict on `CSc1nc2cc(Oc3cccc(Cl)c3Cl)c(Cl)cc2[nH]1` ?
Result block: TRUE

Query block: What was the test verdict on `CNC(=O)c1c(I)c(C(=O)NCC(=O)Nc2c(I)c(C(=O)O)c(I)c(C(=O)NCCO)c2I)c(I)c(N(C)C(C)=O)c1I` ?
Result block: FALSE

Query block: What was the test verdict on `Nc1nccs1` ?
Result block: FALSE

---

- TEST DESCRIPTION: Cell Viability - LYMP1-002 - Assay at 40 hr (AID 994); also: nearly all actives have a fitted effect of over 60% in size
- CONDITION INFO: LYMP1-002 lymphoblastoid cell viability; series mostly up to 92.2 µM
Records with an inconclusive call do not appear. The source made the active and inactive calls. Calls follow the shape of the dose curve; as a rule, active = well fitted cell-killing curve with a large enough effect; inconclusive = small, poorly fitted or top-dose-only effect; inactive = flat fitted curve, though single readings scatter.
Respond using exactly one of the listed classes: active, inactive

[O-][N+](=Nc1ccccc1)c1ccccc1 = inactive

Query block: What was the test verdict on `C[C@H]1O[C@@H](O[C@H]2[C@@H](O)C[C@H](O[C@H]3[C@@H](O)C[C@H](O[C@H]4CC[C@@]5(C)[C@H](CC[C@@H]6[C@@H]5C[C@@H](O)[C@]5(C)[C@@H](C7=CC(=O)OC7)CC[C@]65O)C4)O[C@@H]3C)O[C@@H]2C)C[C@H](O)[C@@H]1O` ?
Result block: active

Query block: What was the test verdict on `COC(=O)c1ccccc1O` ?
Result block: inactive

Query block: What was the test verdict on `CC(C)(C)CC(C)(C)c1ccc(OCCO)cc1` ?
Result block: inactive

Query block: What was the test verdict on `NCCN` ?
Result block: inactive

Query block: What was the test verdict on `c1ccc2ccccc2c1` ?
Result block: inactive

---

- EXPERIMENTAL SYSTEM: Phospholipid hydroperoxide glutathione peroxidase GPX4 (Homo sapiens)
- TEST DESCRIPTION: Primary qHTS Assay for Inhibitors of Recombinant Selenoprotein Glutathione Peroxidase 4 (GPX4) (AID 1845192); also: nearly all actives have a fitted effect of over 65% in size; also: potency is read from the fitted curve at half-maximal effect
- CONDITION INFO: recombinant GPX4, GR-coupled NADPH fluorescence, 15 min; series mostly up to 50 µM
Results filed as inconclusive are left out. Activity calls are given as the source filed them. Calls follow the shape of the dose curve; as a rule, active = well fitted inhibition curve with a large enough effect; inconclusive = small, poorly fitted or top-dose-only effect; inactive = flat fitted curve, though single readings scatter.
READOUT TYPE: Potency

Example molecules with recorded Potency:
C[C@H]1O[C@@H](O[C@H]2[C@@H](O)C[C@H](O[C@H]3[C@@H](O)C[C@H](O[C@H]4CC[C@@]5(C)[C@H](CC[C@@H]6[C@@H]5C[C@@H](O)[C@]5(C)[C@@H](C7=CC(=O)OC7)CC[C@]65O)C4)O[C@@H]3C)O[C@@H]2C)C[C@H](O)[C@@H]1O = inactive
CC(CCc1ccc(O)cc1)NCC(O)c1ccc(O)cc1 (stereo not given) = inactive
CCC(Oc1ccccc1)C(=O)N[C@@H]1C(=O)N2[C@@H]1SC(C)(C)[C@@H]2C(=O)O (stereo not given in full) = 31.6 µM (active)
CCCCC(O)c1ccccc1 (stereo not given) = inactive

Now consider the entry below.
Query block: Item `NC(=O)c1ccc[n+]([C@@H]2O[C@H](COP(=O)([O-])OP(=O)(O)OC[C@H]3O[C@@H](n4cnc5c(N)ncnc54)[C@H](O)[C@@H]3O)[C@@H](O)[C@H]2O)c1` : provide Potency
Result block: inactive

---

- Tested on: ICS
- TEST DESCRIPTION: qHTS profiling for inhibitors of Plasmodium falciparum proliferation (AID 504749); also: nearly all actives have a fitted effect of over 60% in size; also: potency is read from the fitted curve at half-maximal effect
- CONDITION INFO: P. falciparum in erythrocytes, SYBR Green DNA, 72 h; series mostly up to 28.7 µM
Inconclusive results are not listed. Activity calls are given as the source filed them. The call rests on the fitted dose curve; in most records, active means well fitted inhibition curve with a large enough effect; inconclusive means small, poorly fitted or top-dose-only effect; inactive means flat fitted curve, though single readings scatter.
READOUT TYPE: Potency

Example molecules with recorded Potency:
NC(=S)N=Nc1ccc(NN=C(N)N)cc1 = 5.01 µM (active)
O=C(NNCNNC(=O)c1ccncc1)c1ccncc1 = inactive
O=C(O)c1ccc(OCCn2ccnc2)cc1 = inactive
CC(=O)c1ccc2c(c1)N(CCCN1CCN(CCO)CC1)c1ccccc1S2 = 7.94 µM (active)
FC(F)(F)COCC(F)(F)F = inactive
CC1(C)S[C@@H]2[C@H](NC(=O)C3(N)CCCCC3)C(=O)N2[C@H]1C(=O)O = inactive

Query block: Fill: Potency (ICS) for this molecule `O=C1c2ccccc2C(=O)c2c1ccc(O)c2O`
Result block: inactive

Query block: Fill: Potency (ICS) for this molecule `CC/C=C\C/C=C\C/C=C\C/C=C\C/C=C\C/C=C\CCC(=O)O`
Result block: 12.6 µM (active)

Query block: Fill: Potency (ICS) for this molecule CC(C)(COP(=O)(O)OP(=O)(O)OC[C@H]1O[C@@H](n2cnc3c(N)ncnc32)[C@H](O)[C@@H]1OP(=O)(O)O)C(O)C(=O)NCCC(=O)NCCS (stereo partly drawn)
Result block: inactive

---

- EXPERIMENTAL SYSTEM: Glutathione peroxidase 1 (Homo sapiens) (UniProt P07203)
- Sequence (P07203 whole entry, looked up): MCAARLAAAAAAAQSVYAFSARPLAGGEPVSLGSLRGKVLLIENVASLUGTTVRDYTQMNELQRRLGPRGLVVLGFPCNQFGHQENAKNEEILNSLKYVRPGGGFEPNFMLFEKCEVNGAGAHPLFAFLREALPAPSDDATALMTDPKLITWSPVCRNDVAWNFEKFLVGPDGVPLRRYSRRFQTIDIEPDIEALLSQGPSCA
- TEST DESCRIPTION: Primary qHTS Assay for Inhibitors of Recombinant Selenoprotein Glutathione Peroxidase 1 (GPX1) (AID 1845191); also: nearly all actives have a fitted effect of over 65% in size
- CONDITION INFO: recombinant GPX1, GR-coupled NADPH fluorescence, 15 min; series mostly up to 48.8 µM
Records with an inconclusive call do not appear. Calls of active or inactive are those of the source. The call rests on the fitted dose curve; in most records, active means well fitted inhibition curve with a large enough effect; inconclusive means small, poorly fitted or top-dose-only effect; inactive means flat fitted curve, though single readings scatter.
Respond using exactly one of the listed classes: active, inactive

Consider the following illustrative entries.
CO[C@@H]1[C@H](OC(=O)/C=C/C=C/C=C/C=C/C(=O)O)CC[C@]2(CO2)[C@H]1[C@@]1(C)O[C@@H]1CC=C(C)C = inactive
C[C@]12CC[C@@H]3c4ccc(OC(=O)c5ccccc5)cc4CC[C@H]3[C@@H]1CC[C@@H]2O = inactive
CC1=CC(=C(c2ccc(N)cc2)c2ccc(N)cc2)C=CC1=N = inactive
COc1ccc2c(c1)N(C[C@H](C)CN(C)C)c1ccccc1S2 = inactive
CC/C=C\C/C=C\C/C=C\C/C=C\C/C=C\CCCC(=O)O = inactive
CCOC(=O)[C@H](CS)NCCN[C@@H](CS)C(=O)OCC = active
CCSc1ccc2c(c1)N(CCCN1CCN(C)CC1)c1ccccc1S2 = inactive
CC(C)(O/N=C(\C(=O)N[C@@H]1C(=O)N2C(C(=O)[O-])=C(C[n+]3ccccc3)CS[C@H]12)c1csc(N)n1)C(=O)O = active

Query block: What was the test verdict on `CC[C@H](CC[C@@H](C)[C@H]1CC[C@H]2[C@@H]3CC=C4C[C@@H](O)CC[C@]4(C)[C@H]3CC[C@]12C)C(C)C` ?
Result block: inactive

---

- EXPERIMENTAL SYSTEM: Phospholipid hydroperoxide glutathione peroxidase GPX4 (Homo sapiens)
- TEST DESCRIPTION: Primary qHTS Assay for Inhibitors of Recombinant Selenoprotein Glutathione Peroxidase 4 (GPX4) (AID 1845192); also: nearly all actives have a fitted effect of over 65% in size; also: potency is read from the fitted curve at half-maximal effect
- CONDITION INFO: recombinant GPX4, GR-coupled NADPH fluorescence, 15 min; series mostly up to 50 µM
Inconclusive results are not listed. Activity calls are given as the source filed them. The call rests on the fitted dose curve; in most records, active means well fitted inhibition curve with a large enough effect; inconclusive means small, poorly fitted or top-dose-only effect; inactive means flat fitted curve, though single readings scatter.
READOUT TYPE: Potency

Example compounds with recorded Potency:
CCN1C(=O)NC(c2ccccc2)C1=O (stereo not given) = inactive
NC(=O)OCC(O)COc1ccc(Cl)cc1 (stereo not given) = inactive
CC(C)=CCC/C(C)=C/C=C/C(C)=C/C=C/C(C)=C/C=C/C=C(C)/C=C/C=C(C)/C=C/C=C(\C)CCC=C(C)C = inactive
CCCCC/C=C\C/C=C\C/C=C\CCCCC(=O)O = 8.91 µM (active)
CCN(CC)CCOC(=O)c1cccnc1 = inactive

Query block: Item `COc1ccc2c(=O)c(C)c(-c3ccccc3)oc2c1CN(C)C` : provide Potency
Result block: inactive

Query block: Item `S=C1SCN(Cc2ccccc2)CN1Cc1ccccc1` : provide Potency
Result block: 15.8 µM (active)

Query block: Item NC(N)=NCC1COC2(CCCCC2)O1 (stereo not given) : provide Potency
Result block: inactive

Query block: Item `O=C(O)c1cc(O)c2c(c1)[C@H]([C@H]1c3cc(C(=O)O)cc(O)c3C(=O)c3c(O[C@@H]4O[C@H](CO)[C@@H](O)[C@H](O)[C@H]4O)cccc31)c1cccc(O[C@@H]3O[C@H](CO)[C@@H](O)[C@H](O)[C@H]3O)c1C2=O` : provide Potency
Result block: 1.12 µM (active)

Query block: Item CC(CN1c2ccccc2Sc2cccnc21)N(C)C (stereo not given) : provide Potency
Result block: inactive

Source of measurements: PubChem BioAssay (NCATS)
